- experiment: Tmax in mouse at 50 mg/kg, po administered via gavage cotreated with 50 mg/kg ritonavir
- Type: ADME, organism-based
- experimental_parameters: in vivo
Provide the reported Tmax of each item.
Give just the numeric value; h need not be written.

query: Report Tmax for [2H]C([2H])(c1cc(Cl)ccc1N)N1CCN(C(=O)CNC(=O)C2CC23CCC(F)(F)CC3)CC1 (single isomer, unassigned; (-)) please.
result: 1.7

query: Need Tmax of [2H]C([2H])(c1cc(Cl)ccc1NCc1ccc(S(C)(=O)=O)cc1)N1CCN(C(=O)CNC(=O)C2CC23CCC(F)(F)CC3)CC1 (single isomer, unassigned; (-)) , thanks.
result: 7.3

query: If you can, please state the reported Tmax value of CS(=O)(=O)c1ccc(COc2ccc(Cl)cc2CN2CCN(C(=O)CNC(=O)C3CC34CCC(F)(F)CC4)CC2)cc1 (stereo in doubt; 3-22) .
result: 4

----------
- experiment: Half life in mouse liver microsomes at 1 uM after 60 mins in presence of NADPH by LC-MS/MS analysis
- Type: ADME, microsome
Record form. Attribute: half-life at 1 µM. Fill in for each entry.
Output spec: scalar in min, unitless text.

query: Sample [2H]C([2H])(c1cc(Cl)ccc1NCc1ccc(S(C)(=O)=O)cc1)N1CCN(C(=O)CNC(=O)C2CC23CCC(F)(F)CC3)CC1 (single isomer, unassigned; (-)) — what was its half-life at 1 µM?
result: 2

query: Give its half-life at 1 µM value. Item: [2H]C([2H])(c1cc(Cl)ccc1N)N1CCN(C(=O)CNC(=O)C2CC23CCC(F)(F)CC3)CC1 (single isomer, unassigned; (-))
result: 3

query: Given `COC(=O)c1ccc(COc2ccccc2CN2CCN(C(=O)CNC(=O)CC34CC5CC(CC(C5)C3)C4)CC2)cc1` , state its recorded half-life at 1 µM.
result: 1

query: Data request, read-out half-life at 1 µM, for `O=C(CC12CC3(F)CC(F)(CC(F)(C3)C1)C2)NCC(=O)N1CCN(Cc2ccccc2OCc2ccc(Br)cc2)CC1`
result: 1

query: Field request: half-life at 1 µM | item: `O=C(CC12CC3CC(CC(C3)C1)C2)NCC(=O)N1CCN(Cc2ccccc2OCc2ccc(-c3ncco3)cc2)CC1`
result: 1

----------
- experiment: Cmax in mouse at 50 mg/kg, po administered via gavage cotreated with 50 mg/kg ritonavir
- Assay type: ADME, organism-based
- Parameters: dose 50 mg/kg, route oral
- experimental_parameters: in vivo
readout: Cmax (µM)
Give the value, in units of µM, as a plain number.

query: Look up Cmax for this compound: CS(=O)(=O)c1ccc(COc2ccc(Cl)cc2CN2CCN(C(=O)CNC(=O)C3CC34CCC(F)(F)CC4)CC2)cc1 (stereo in doubt; 3-22)
result: 10.4

query: Any idea what its Cmax is? The compound is [2H]C([2H])(c1cc(Cl)ccc1N)N1CCN(C(=O)CNC(=O)C2CC23CCC(F)(F)CC3)CC1 (single isomer, unassigned; (-))
result: 19.5

query: Form field: reported Cmax of [2H]C([2H])(c1cc(Cl)ccc1NCc1ccc(S(C)(=O)=O)cc1)N1CCN(C(=O)CNC(=O)C2CC23CCC(F)(F)CC3)CC1 (single isomer, unassigned; (-))
result: 7.4

----------
- experiment: Clearance in mouse at 25 mg/kg, po administered via gavage
- Type: ADME, organism-based
- experimental_parameters: in vivo
readout: CL/F (mL/min/kg)
Give just the number in mL/min/kg; leave the unit off.

query: Give the measured CL/F of `[2H]C([2H])(c1cc(Cl)ccc1N)N1CCN(C(=O)CNC(=O)CC2CCC(F)(F)CC2)CC1` .
result: 49
